test: Test B: Cytotoxicity Assay (uninfected MT-4 cells); type: cell-based; conditions: human, same protocol as Test A, read-out: MT4-CC50

{"columns": ["molecule", "CC50 at 5 days"],
 "data": [
  ["COc1ccc(N(C)C(=O)[C@@H]2Cc3cccc(c3)CCCc3[nH]c4ccccc4c3CC(=O)N2)cc1 [Example 1]", "> 50.3 µM"],
  ["COc1ccc(N(C)C(=O)[C@@H]2Cc3cccc(c3)CCSCc3[nH]c4ccc(O)cc4c3CC(=O)N2)cc1 [Example 6]", "49.2 µM"],
  ["COc1ccc(N(C)C(=O)[C@@H]2Cc3cccc(c3)CCCc3[nH]c4ccc(O)cc4c3CC(=O)N2)cc1 [Example 2]", "> 46.4 µM"],
  ["COc1ccc(N(C)C(=O)[C@@H]2Cc3cccc(c3)CSCc3[nH]c4ccccc4c3CC(=O)N2)cc1 [Example 15]", "> 51.4 µM"],
  ["COc1ccc(N(C)C(=O)[C@@H]2Cc3cccc(c3)CCc3[nH]c4ccccc4c3CC(=O)N2)cc1 [Example 3]", "> 53 µM"],
  ["COc1ccc(N(C)C(=O)[C@@H]2Cc3cccc(c3)CCS(=O)(=O)Cc3[nH]c4ccccc4c3CC(=O)N2)cc1 [Example 8]", "> 53 µM"],
  ["CN(C(=O)[C@@H]1Cc2cccc(c2)CCCc2cc(C(F)(F)F)nn2CC(=O)N1)c1ccc(Cl)cc1 [Example 32]", "22.5 µM"]
]}
